Each record here notes measured percentage damage caused to the plant, ECHCG (five-point scale).
System: Echinochloa crus-galli (ECHCG)
method: Post-emergence Test, Echinochloa crus-galli (ECHCG)
Assay type: in vivo
Set-up: key: 5=81-100%, 4=61-80%, 3=41-60%, 2=21-40%, 1=0-20% damage
conditions used: 1000 g/ha, evaluated after 13 days

// solved cases for percentage damage caused to the plant, ECHCG (five-point scale) follow
structure smiles string	result
CCn1c(Cn2cc(Cl)c(C)n2)cc(=O)c(C(=O)O)c1-c1ccc(Cl)c(Cl)c1	4 (4=61-80%)
CCn1c(Cn2ccc(OCCOC)n2)cc(=O)c(C(=O)O)c1-c1ccc(Cl)c(Cl)c1	3 (3=41-60%)
CCn1c(Cn2ccc(C(F)(F)F)n2)cc(=O)c(C(=O)O)c1-c1ccc(F)c(Cl)c1	4 (4=61-80%)
CCn1c(Cn2cc(S(C)(=O)=O)cn2)cc(=O)c(C(=O)O)c1-c1ccc(Cl)c(Cl)c1	1 (1=0-20%)

Now look at this one.
GET /value?item= "CCOC(=O)c1c(-c2ccc(Cl)c(Cl)c2)n(CC)c(Cn2cnc(C(F)(F)F)n2)cc1=O" &field=percentage damage caused to the plant, ECHCG (five-point scale) returns 1 (1=0-20%)

====

System: Zea mays (ZEAMX)
method: Pre-emergence Test, Zea mays (ZEAMX)
Format: in vivo
conditions used: 1000 g/ha, evaluated after 13 days
observed property: Pre-emergence Test ZEAMX, percentage damage caused to the plant (five-point scale)
Answer field: number only, no words.

Lab book: Pre-emergence Test ZEAMX, percentage damage caused to the plant (five-point scale) of "CCn1c(Cn2ccc(C(F)(F)F)n2)c(Br)c(=O)c(C(=O)O)c1-c1ccc(Cl)c(Cl)c1" noted as 0

====

Tested on: Setaria faberi (SETFA)
method: Pre-emergence Test, Setaria faberi (SETFA)
Assay type: in vivo
conditions used: 1000 g/ha, evaluated after 13 days
observed property: Pre-emergence Test SETFA, percentage damage caused to the plant (five-point scale)

structure smiles string	result
CCn1c(Cn2cc(C(=O)OC)cn2)cc(=O)c(C(=O)O)c1-c1ccc(Cl)c(Cl)c1	1 (1=0-20%)
CCn1c(Cn2ccc(Cl)n2)cc(=O)c(C(=O)O)c1-c1ccc(F)c(Cl)c1	5 (5=81-100%)
CCn1c(Cn2cc(C(F)F)cn2)cc(=O)c(C(=O)O)c1-c1ccc(Cl)c(Cl)c1	5 (5=81-100%)
CCn1c(Cn2cc(F)cn2)cc(=O)c(C(=O)O)c1-c1ccc(Cl)c(Cl)c1	5 (5=81-100%)
CCn1c(Cn2ccc(CC#N)n2)cc(=O)c(C(=O)O)c1-c1ccc(Cl)c(Cl)c1	3 (3=41-60%)

response.value for "CCn1c(Cn2nccc2C#N)cc(=O)c(C(=O)O)c1-c1ccc(Cl)c(Cl)c1" (field: Pre-emergence Test SETFA, percentage damage caused to the plant (five-point scale)) = 4 (4=61-80%)

====

Form field: Pre-emergence Test SETFA, percentage damage caused to the plant (five-point scale) (one value per entry).
System: Setaria faberi (SETFA)
method: Pre-emergence Test, Setaria faberi (SETFA)
Type: in vivo
conditions used: 1000 g/ha, evaluated after 13 days

Some compounds with recorded Pre-emergence Test SETFA, percentage damage caused to the plant (five-point scale):
compound	system tested	result
CCn1c(Cn2ccc(C(F)(F)F)n2)cc(=O)c(C(=O)O)c1-c1ccc(F)c(Cl)c1 [Compound 32]	Setaria faberi (SETFA)	5 (5=81-100%)
CCn1c(Cn2cc(Cl)cn2)cc(=O)c(C(=O)O)c1-c1ccc(Cl)c(Cl)c1 [Compound 14]	Setaria faberi (SETFA)	5 (5=81-100%)
C=CCOc1ccn(Cc2cc(=O)c(C(=O)O)c(-c3ccc(Cl)c(Cl)c3)n2CC)n1 [Compound 163]	Setaria faberi (SETFA)	3 (3=41-60%)

Read the next record carefully.
Lookup result for CCn1c(Cn2cncc2C(F)(F)F)cc(=O)c(C(=O)O)c1-c1ccc(Cl)c(Cl)c1 [Compound 16] ; measured Pre-emergence Test SETFA, percentage damage caused to the plant (five-point scale): 1 (1=0-20%)

====

Reported percentage damage caused to the plant, ZEAMX (five-point scale) values for the following compounds.
System: Zea mays (ZEAMX)
method: Post-emergence Test, Zea mays (ZEAMX)
Type: in vivo
Parameters: key: 5=81-100%, 4=61-80%, 3=41-60%, 2=21-40%, 1=0-20% damage
conditions used: 250 g/Ha, evaluated after 13 days
In your answer, state the number alone without any accompanying words.

structure smiles string	system tested	number
CCn1c(Cn2cc3c(n2)CCCC3)cc(=O)c(C(=O)O)c1-c1ccc(Cl)c(Cl)c1	Zea mays (ZEAMX)	0

// next item, percentage damage caused to the plant, ZEAMX (five-point scale) requested
Reported percentage damage caused to the plant, ZEAMX (five-point scale) for "CCn1c(Cn2ccc(C(F)(F)F)n2)cc(=O)c(C(=O)OC)c1-c1ccc(Cl)cc1" was 0

====

Tested on: Setaria faberi (SETFA)
method: Pre-emergence Test, Setaria faberi (SETFA)
Format: in vivo
conditions used: 1000 g/ha, evaluated after 13 days
Recorded Pre-emergence Test SETFA, percentage damage caused to the plant (five-point scale) for the following compounds

compound	result
CCn1c(Cn2nc(Cl)cc2Cl)cc(=O)c(C(=O)O)c1-c1ccc(Cl)c(Cl)c1 [Compound 134]	5 (5=81-100%)

# Pre-emergence Test SETFA, percentage damage caused to the plant (five-point scale) (compound: CCn1c(Cn2nc(C)cc2C)cc(=O)c(C(=O)O)c1-c1ccc(Cl)c(Cl)c1 [Compound 39] ) is 3 (3=41-60%)

So for Cn1c(Cn2ccc(C(F)(F)F)n2)cc(=O)c(C(=O)O)c1-c1ccc(C#N)c(Cl)c1 [Compound 117] , the logged Pre-emergence Test SETFA, percentage damage caused to the plant (five-point scale) turned out to be 5 (5=81-100%)

Recorded Pre-emergence Test SETFA, percentage damage caused to the plant (five-point scale) (compound CCOC(=O)c1c(-c2ccc(Cl)c(Cl)c2)n(CC)c(Cn2ncc3cnc(Cl)cc32)cc1=O [Compound 52] ): 0

GET /value?item= CCn1c(Cn2cc(C(F)(F)F)cn2)cc(=O)c(C(=O)O)c1-c1ccc(Cl)c(Cl)c1 [Compound 6] &field=Pre-emergence Test SETFA, percentage damage caused to the plant (five-point scale) returns 4 (4=61-80%)

// field: Pre-emergence Test SETFA, percentage damage caused to the plant (five-point scale); key: CCn1c(Cn2ccc(Cl)n2)cc(=O)c(C(=O)O)c1-c1ccc(C#N)c(Cl)c1 [Compound 119] ; value = 4 (4=61-80%)

Looking up CCCOc1ccn(Cc2cc(=O)c(C(=O)O)c(-c3ccc(Cl)c(Cl)c3)n2CC)n1 [Compound 160] , I found its Pre-emergence Test SETFA, percentage damage caused to the plant (five-point scale) recorded as 5 (5=81-100%)

Recorded Pre-emergence Test SETFA, percentage damage caused to the plant (five-point scale) (compound CCn1c(Cn2ccc(C(F)(F)F)n2)cc(=O)c(C(=O)OC)c1-c1ccc(Cl)cc1 [Compound 22] ): 4 (4=61-80%)

Pre-emergence Test SETFA, percentage damage caused to the plant (five-point scale) reading for CCn1c(Cn2cc3c(n2)COC3)cc(=O)c(C(=O)O)c1-c1ccc(Cl)c(Cl)c1 [Compound 92] : 4 (4=61-80%)

Lab note: CCn1c(Cn2nc(C)cc2OC(F)F)cc(=O)c(C(=O)O)c1-c1ccc(Cl)c(Cl)c1 [Compound 150] gave Pre-emergence Test SETFA, percentage damage caused to the plant (five-point scale) of 5 (5=81-100%)

Note to self: Pre-emergence Test SETFA, percentage damage caused to the plant (five-point scale) recorded for CCn1c(Cn2cnc(OC)n2)cc(=O)c(C(=O)O)c1-c1ccc(Cl)c(Cl)c1 [Compound 44] was 1 (1=0-20%)

Entry CCn1c(Cn2nc(C(F)(F)F)cc2OC)cc(=O)c(C(=O)O)c1-c1ccc(Cl)c(Cl)c1 [Compound 145] ; Pre-emergence Test SETFA, percentage damage caused to the plant (five-point scale) = 5 (5=81-100%)

Looking up CCOCc1ccn(Cc2cc(=O)c(C(=O)O)c(-c3ccc(Cl)c(Cl)c3)n2CC)n1 [Compound 173] , I see its Pre-emergence Test SETFA, percentage damage caused to the plant (five-point scale) listed as 4 (4=61-80%)

Item: CCn1c(Cn2ncc(Cl)c2C)cc(=O)c(C(=O)O)c1-c1ccc(Cl)c(Cl)c1 [Compound 88] | Pre-emergence Test SETFA, percentage damage caused to the plant (five-point scale): 2 (2=21-40%)

====

Test system: Echinochloa crus-galli (ECHCG)
method: Post-emergence Test, Echinochloa crus-galli (ECHCG)
Format: in vivo
Set-up: key: 5=81-100%, 4=61-80%, 3=41-60%, 2=21-40%, 1=0-20% damage
conditions used: 1000 g/ha, evaluated after 13 days
percentage damage caused to the plant, ECHCG (five-point scale): recorded values

Examples with answers:
structure smiles string	result
CCn1c(Cn2ncc([N+](=O)[O-])c2C)cc(=O)c(C(=O)O)c1-c1ccc(Cl)c(Cl)c1	1 (1=0-20%)
CCn1c(Cn2ccc(Cl)n2)cc(=O)c(C(=O)O)c1-c1ccc(Cl)c(Cl)c1	4 (4=61-80%)
CCn1c(Cn2ccc(Cl)n2)cc(=O)c(C(=O)O)c1-c1ccc(F)c(Cl)c1	4 (4=61-80%)
CCn1c(Cn2cc3cc(Cl)ccc3n2)cc(=O)c(C(=O)O)c1-c1ccc(Cl)c(Cl)c1	0
CCn1c(Cn2nccn2)cc(=O)c(C(=O)O)c1-c1ccc(Cl)c(Cl)c1	5 (5=81-100%)
CCn1c(Cn2cc(C)c(C(F)(F)F)n2)cc(=O)c(C(=O)O)c1-c1ccc(Cl)c(Cl)c1	2 (2=21-40%)

percentage damage caused to the plant, ECHCG (five-point scale) measured on "CCn1c(Cn2cnc(C(F)(F)F)n2)cc(=O)c(C(=O)O)c1-c1ccc(Cl)c(Cl)c1" = 2 (2=21-40%)

percentage damage caused to the plant, ECHCG (five-point scale) reported for this molecule "CCn1c(Cn2nc(C#N)cc2C#N)cc(=O)c(C(=O)O)c1-c1ccc(Cl)c(Cl)c1" : 1 (1=0-20%)

Quick note, percentage damage caused to the plant, ECHCG (five-point scale) for "CCn1c(Cn2ccc(C(F)F)n2)cc(=O)c(C(=O)O)c1-c1ccc(Cl)c(Cl)c1" landed at 4 (4=61-80%)

The measured percentage damage caused to the plant, ECHCG (five-point scale) associated with "CCOC(=O)c1c(-c2ccc(Cl)c(Cl)c2)n(CC)c(Cn2nccn2)cc1=O" reads 1 (1=0-20%)

Memo: "CCOc1cc(C(F)(F)F)nn1Cc1cc(=O)c(C(=O)O)c(-c2ccc(Cl)c(Cl)c2)n1CC" , reported percentage damage caused to the plant, ECHCG (five-point scale): 4 (4=61-80%)

The molecule "CCn1c(Cn2cc(C(F)(F)F)nc2C)cc(=O)c(C(=O)O)c1-c1ccc(Cl)c(Cl)c1" showed percentage damage caused to the plant, ECHCG (five-point scale) equal to 1 (1=0-20%)

# percentage damage caused to the plant, ECHCG (five-point scale) of "CCn1c(Cn2ncc3cc(F)ccc32)cc(=O)c(C(=O)O)c1-c1ccc(Cl)c(Cl)c1" = 3 (3=41-60%)

Entry "CCn1c(Cn2cc(F)cn2)cc(=O)c(C(=O)O)c1-c1ccc(Cl)c(Cl)c1" — recorded percentage damage caused to the plant, ECHCG (five-point scale) = 4 (4=61-80%)

Summary for this molecule, "CCn1c(Cn2ccc(SC)n2)cc(=O)c(C(=O)O)c1-c1ccc(Cl)c(Cl)c1" : percentage damage caused to the plant, ECHCG (five-point scale) is 4 (4=61-80%)

Briefly, percentage damage caused to the plant, ECHCG (five-point scale) measured for "CCn1c(Cn2cnc(Cl)c2Cl)cc(=O)c(C(=O)O)c1-c1ccc(Cl)c(Cl)c1" : 0
